// data source = patent US8729134B2

# Tested on: SK-OV-3 (ovarian adenocarcinoma) cells
# method: MTT cell viability assay, SK-OV-3 cells
# Assay type: cell-based
# particulars: Homo sapiens, read-out: IC 50, inhibition in SK-OV-3 cells
# Description: Cell viability was tested using the MTT assay (Amersham). The MTT [3-(4,5-dimethylthiazol-2-yl)-2,5-diphenyltetrazolium bromide] assay, was first described by Mosmann in 1983, (J Immunol Methods. 1983 Dec. 16; 65(1-2):55-63). […] The colour can then be quantified using a simple colorimetric assay. The results can be read on a multi-well scanning spectrophotometer (ELISA reader). […] MTT reagent was then added to each well. […] The absorbance was read at 570 nm. […]
value kind: pIC50
Remember, pIC50 is on a log scale: it is -log10 of the molar concentration.

pIC50 of C=C(C(=O)c1ccc(OC)cc1OC)c1ccc(OC)c(OC)c1 , assay on SK-OV-3 (ovarian adenocarcinoma) cells, is 4.56

Observed pIC50, SK-OV-3 (ovarian adenocarcinoma) cells, C=C(C(=O)c1ccc(OC)c(OC)c1OC)c1ccc(OC)cc1 : 4.67

SK-OV-3 (ovarian adenocarcinoma) cells data for C=C(C(=O)c1cc(OC)c(OC)cc1OC)c1ccc(OC)c(OC)c1 ; its pIC50: 4.48
